A collection of molecules and their measured cell viability
System: OCI-AML2
Test method notes: cell viability relative to vehicle control; higher = less cytotoxic;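 note: after 48 h exposure read by CellTiter-Glo luminescence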
Condition context: 10 µM; SRSF2 genotype: wt/wt
Counter-ions that a name gives are not always drawn.
Just the number in %, nothing appended.

// O=C(O)CCN1C(=O)/C(=C/c2ccc(-c3ccc([N+](=O)[O-])cc3)o2)SC1=S : cell viability value = 109

// S=c1[nH]cnc2nc[nH]c12 : cell viability value = 90

// CCOc1ccc2ccccc2c1C(=O)N[C@@H]1C(=O)N2[C@@H]1SC(C)(C)[C@@H]2C(=O)O [Nafcillin Sodium] : cell viability value = 107

// COC(=O)C1=C(C)NC(C)=C(C(=O)OCCN(C)Cc2ccccc2)C1c1cccc([N+](=O)[O-])c1 (stereo not drawn) [Nicardipine HCl] : cell viability value = 85

// CN(C)C(=O)CCSC(SCCC(=O)O)c1cccc(/C=C/c2ccc3ccc(Cl)cc3n2)c1 (stereo not drawn) : cell viability value = 103

Further cases:
// CCOCCn1c(N2CCCN(C)CC2)nc2ccccc21 : cell viability value = 104

// CCCOC(C(=O)OC1CCN(C)CC1)(c1ccccc1)c1ccccc1 [Propiverine hydrochloride] : cell viability value = 64.2

// O=C(COc1ccc(Cl)cc1)NC1CCC(NC(=O)COc2ccc(Cl)cc2)CC1 (stereo not drawn) [ISRIB (trans-isomer)] : cell viability value = 95.9

---

Test system: MOLM14
Test method notes: cell viability relative to vehicle control; higher = less cytotoxic
Condition context: 10 µM; SRSF2 genotype: SRSF2 wt/wt
A collection of compounds and their measured cell viability
Just the number in %, nothing appended.

Examples with their reported cell viability follow.
// c1ccc(-c2nn3c(c2-c2ccnc4cc(OCCN5CCOCC5)ccc24)CCC3)nc1 : cell viability value = 110

// COc1ccc(C2CNC(=O)C2)cc1OC1CCCC1 (stereo not drawn) [S-(+)-Rolipram] : cell viability value = 108

Further cases:
// CN1CCN(Cc2ccc(NC(=O)Nc3ccc(Oc4cc(NC(=O)C5CC5)ncn4)cc3)cc2C(F)(F)F)CC1 : cell viability value = 0.31

// CS(=O)(=O)OCCCCOS(C)(=O)=O : cell viability value = 106

// Nc1nc(=S)c2ncn([C@H]3C[C@H](O)[C@@H](CO)O3)c2[nH]1 : cell viability value = 31.7

// CN1CCN(Cc2ccc(NC(=O)Cc3ccc(Oc4cc(NC(=O)C5CC5)ncn4)cc3)cc2C(F)(F)F)CC1 : cell viability value = 0.45

// O=C(NC1CCN(CCCCC2(C(=O)NCC(F)(F)F)c3ccccc3-c3ccccc32)CC1)c1ccccc1-c1ccc(C(F)(F)F)cc1 [Lomitapide] : cell viability value = 0.37

---

Tested on: MARIMO
Test method notes: cell viability relative to vehicle control; higher = less cytotoxic
Condition context: 10 µM; SRSF2 genotype: SRSF2 P95H/wt
Structures can show the parent of a compound that is named as a salt.
Endpoint label: cell viability (%)
Just the number in %, nothing appended.

// C[C@@H]1C[C@H]2[C@@H]3CCC4=CC(=O)C=C[C@]4(C)[C@@]3(Cl)[C@@H](O)C[C@]2(C)[C@@]1(OC(=O)c1ccco1)C(=O)CCl [Mometasone furoate] : cell viability value = 87.8

Further cases:
// CC[C@@H](CO)NCCN[C@@H](CC)CO [Ethambutol HCl] : cell viability value = 99.4

// CCC(C)CC(C)CCCCCCCCC(=O)NC1CC(O)C(O)NC(=O)C2C(O)CCN2C(=O)C(C(O)CC(N)=O)NC(=O)C(C(O)C(O)c2ccc(O)cc2)NC(=O)C2CC(O)CN2C(=O)C(C(C)O)NC1=O (stereo unspecified) : cell viability value = 97

// Nc1ncnc2n[nH]c(Nc3ccc(F)cc3)c12 : cell viability value = 70
